Reported pKD values follow for various compounds
Molecular target: UniProtKB P35367
Sequence (P35367 whole entry): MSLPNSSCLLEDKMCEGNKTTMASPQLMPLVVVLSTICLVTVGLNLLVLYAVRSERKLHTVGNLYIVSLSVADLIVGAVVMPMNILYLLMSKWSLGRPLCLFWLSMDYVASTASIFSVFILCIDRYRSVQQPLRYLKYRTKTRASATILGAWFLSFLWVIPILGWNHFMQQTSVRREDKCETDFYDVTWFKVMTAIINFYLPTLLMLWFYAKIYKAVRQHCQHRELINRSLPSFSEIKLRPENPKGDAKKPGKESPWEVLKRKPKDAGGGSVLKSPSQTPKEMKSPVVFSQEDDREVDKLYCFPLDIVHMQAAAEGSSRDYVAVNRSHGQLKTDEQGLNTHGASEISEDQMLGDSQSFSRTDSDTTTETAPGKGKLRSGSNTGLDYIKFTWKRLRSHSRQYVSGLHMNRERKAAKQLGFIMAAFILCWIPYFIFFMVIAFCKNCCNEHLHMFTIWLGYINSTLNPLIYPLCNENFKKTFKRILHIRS
Test: NanoBRET saturation binding assay on Nluc-H1R expressing HEK293T cells
Design: expressed in transfected cells
Conditions: saturation binding curves, whole HEK293T cells, non-specific with 10 μM mepyramine; mean ± SEM
Square brackets hold non-standard residues; d marks the D form. Peptide text beside a SMILES is read from it. * marks the point of attachment. Propanoyl(3-Pip(4-O-2-BnPh)) = O=C(CCN1CCC(Oc2ccccc2Cc2ccccc2)CC1)*; X2 = O=C(CCC1=[N+]2C(=Cc3ccc(-c4cccs4)n3[B-]2(F)F)C=C1)*; βAla = NCCC(=O)O

compound | pKD
C[C@H](NC(=O)CCN(C)CC/C=C1\c2ccccc2COc2ccccc21)C(=O)N[C@@H](C)C(=O)N[C@@H](C)C(=O)NCCC(=O)N[C@@H](CCCn1cc(COc2ccc(/C=C/C3=[N+]4C(=Cc5ccc(-c6cccs6)n5[B-]4(F)F)C=C3)cc2)nn1)C(N)=O [Compound 28d] | 8.27 ± 0.05
C[C@H](NC(=O)[C@H](C)NC(=O)[C@H](Cc1ccccc1)NC(=O)CCN1CCC(Oc2ccccc2Cc2ccccc2)CC1)C(=O)NCCC(=O)N[C@@H](CCCCNC(=O)CCC1=[N+]2C(=Cc3ccc(-c4cccs4)n3[B-]2(F)F)C=C1)C(N)=O [Compound 39c] ({Propanoyl(3-Pip(4-O-2-BnPh))}-FAA[βAla]K(X2)-NH2) | 6.14 ± 0.06
